# Assay details: Components of the Cytosolic LPS Sensing Pathway: Gene Identification via Genome-wide siRNA Screen;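 also: robust z of the log signal after scaling to non-targeting control siRNA wells of the plate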
# Condition notes: RAW264.7 macrophages, IL-1a HTRF, actives lie on both sides, screened at 100 nM (by protocol), cells primed 5 h with Pam3CSK4 first
About 3,700 (7%) of roughly 53,000 sequences were called active.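 The calls were made as follows: active = gene knockdowns whose robust z-score for IL-1 alpha signal is at least 2 or at most -2, so actives lie on both sides; inactive = the rest.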 Many of the other results were omitted from the sample, so actives are more common in it than they were.
Choose the fitting class; nothing outside true (1) for active, false (0) for inactive is accepted.

| Residue string | Category |
| --- | --- |
| GGGUGUGCAUUUGUACUACTT against Smad9 | false (0) |
| GGGACUUGGAUCGAAUGGATT against Apeh | false (0) |
| GGUAGAUUAUAGCAAAAUGTT against Ik | true (1) |
| GGGAAAAACACUUCUCACUTT against Slc35e2 | false (0) |

For this sequence, state the assay outcome: CCUAGUCCUGAUUUAUCAGTT against Ddx39b
true (1)

For this sequence, state the assay outcome: CCCAGUUGGUGUUUAUAUATT against Ppp3cb
false (0)
